- target-under-test: hLTBP3-proTGFβ1 (human, UniProt Q9NS15 44-1303; P01137 30-390, limits assumed)
- Sequence (Q9NS15 44-1303 limits assumed, chain 1 of 2): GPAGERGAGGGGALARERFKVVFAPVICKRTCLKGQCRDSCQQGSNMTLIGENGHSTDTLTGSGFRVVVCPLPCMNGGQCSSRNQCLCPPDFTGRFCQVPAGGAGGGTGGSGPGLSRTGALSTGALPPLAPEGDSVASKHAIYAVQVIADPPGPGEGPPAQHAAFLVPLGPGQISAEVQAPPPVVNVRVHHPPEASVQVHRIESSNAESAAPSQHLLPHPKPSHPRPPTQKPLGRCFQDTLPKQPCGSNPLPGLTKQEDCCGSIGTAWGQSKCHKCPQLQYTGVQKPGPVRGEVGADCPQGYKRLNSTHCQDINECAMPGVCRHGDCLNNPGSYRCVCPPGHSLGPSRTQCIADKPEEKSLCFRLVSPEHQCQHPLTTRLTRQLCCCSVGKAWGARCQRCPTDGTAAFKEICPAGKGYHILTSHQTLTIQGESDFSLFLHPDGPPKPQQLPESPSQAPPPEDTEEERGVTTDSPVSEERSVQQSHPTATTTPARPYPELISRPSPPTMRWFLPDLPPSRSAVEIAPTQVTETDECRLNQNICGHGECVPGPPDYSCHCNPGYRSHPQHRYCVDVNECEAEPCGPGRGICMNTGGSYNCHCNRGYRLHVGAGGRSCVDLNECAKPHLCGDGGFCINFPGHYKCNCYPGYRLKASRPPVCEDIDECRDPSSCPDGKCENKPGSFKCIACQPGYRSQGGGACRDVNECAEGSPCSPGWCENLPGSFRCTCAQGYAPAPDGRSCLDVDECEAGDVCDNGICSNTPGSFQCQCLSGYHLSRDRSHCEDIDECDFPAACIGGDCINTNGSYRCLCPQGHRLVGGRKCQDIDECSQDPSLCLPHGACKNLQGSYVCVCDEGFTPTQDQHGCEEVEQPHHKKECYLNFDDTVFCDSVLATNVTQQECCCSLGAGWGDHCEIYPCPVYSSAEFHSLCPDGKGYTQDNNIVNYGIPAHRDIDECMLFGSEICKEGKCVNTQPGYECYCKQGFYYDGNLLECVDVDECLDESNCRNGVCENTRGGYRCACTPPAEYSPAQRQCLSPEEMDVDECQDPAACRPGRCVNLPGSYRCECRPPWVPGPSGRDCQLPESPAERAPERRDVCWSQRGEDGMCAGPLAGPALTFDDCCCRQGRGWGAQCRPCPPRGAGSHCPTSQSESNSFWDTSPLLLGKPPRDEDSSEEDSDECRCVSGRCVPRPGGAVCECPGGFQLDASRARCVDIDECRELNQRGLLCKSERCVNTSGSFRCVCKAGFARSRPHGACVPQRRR
- Sequence (P01137 30-390 limits assumed, chain 2 of 2): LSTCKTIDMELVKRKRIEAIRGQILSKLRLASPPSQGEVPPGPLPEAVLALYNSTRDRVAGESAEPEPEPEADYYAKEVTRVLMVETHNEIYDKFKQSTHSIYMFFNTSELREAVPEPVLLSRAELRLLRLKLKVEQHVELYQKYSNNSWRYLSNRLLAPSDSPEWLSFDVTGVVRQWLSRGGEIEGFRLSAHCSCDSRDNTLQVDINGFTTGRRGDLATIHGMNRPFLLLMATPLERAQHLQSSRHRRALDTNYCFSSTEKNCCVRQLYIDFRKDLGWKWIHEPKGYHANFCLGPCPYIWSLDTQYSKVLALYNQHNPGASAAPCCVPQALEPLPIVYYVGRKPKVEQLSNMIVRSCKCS
- assay-notes: cell-based or functional assay
Please provide measured IC50, reporter cell assay for the entries that follow.
Hi! Could you send only the number? It should be in nM, unit omitted.

Any idea what IC50, reporter cell assay was measured for Ab5 (antibody, V domains shown) VH: EVQLVESGGGLVQPGGSLRLSCAASGFTFSSFSMDWVRQAPGKGLEWVSYISPDASTIYYADSVKGRFTISRDNAKNSLYLQMNSLRAEDTAVYYCARGVLDYGDMLDPWGQGTLVTVSS VL: DIQMTQSPSSLSASVGDRVTITCQASQDITNYLNWYQQKPGKAPKLLIYDASNLETGVPSRFSGSGSGTDFTFTISSLQPEDIATYYCQQADNHPPWTFGGGTKVEIK ?
1

Any idea what IC50, reporter cell assay was measured for Ab23 (antibody, V domains shown) VH: EVQLVESGGGLVQPGGSLRLSCAASGFTFSSFSMNWVRQAPGKGLEWVSYISPSADTIYYADSVKGRFTISRDNAKNTLYLQMNSLRAEDTAVYYCARGVLDYGDMLDPWGQGTLVTVSS VL: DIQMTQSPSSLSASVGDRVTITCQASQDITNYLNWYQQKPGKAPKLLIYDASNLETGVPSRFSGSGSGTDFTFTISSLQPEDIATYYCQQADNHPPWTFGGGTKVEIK ?
0.9

Any idea what IC50, reporter cell assay was measured for Ab29 (antibody, V domains shown) VH: EVQLVESGGGLVQPGRSLRLSCAASGFTFSSFAMNWVRQAPGKGLEWVSYISPDASTIYYAGSVKGRFTISRDNAKNSLYLQMNSLRAEDTAVYYCVRAVLDYGDMLDPWGQGTLVTVSS VL: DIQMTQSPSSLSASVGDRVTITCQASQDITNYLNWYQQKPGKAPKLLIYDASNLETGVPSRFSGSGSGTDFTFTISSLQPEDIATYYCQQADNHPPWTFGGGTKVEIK ?
0.8
